# STUDY TARGET: T1, KODBR3exo Pol (Thermococcus kodakarensis / BR3 chimera, UniProt P77933 1-130+A0A133VA65:160-367+329-406+767-851+1389-1671, internal_change)
# T1 sequence: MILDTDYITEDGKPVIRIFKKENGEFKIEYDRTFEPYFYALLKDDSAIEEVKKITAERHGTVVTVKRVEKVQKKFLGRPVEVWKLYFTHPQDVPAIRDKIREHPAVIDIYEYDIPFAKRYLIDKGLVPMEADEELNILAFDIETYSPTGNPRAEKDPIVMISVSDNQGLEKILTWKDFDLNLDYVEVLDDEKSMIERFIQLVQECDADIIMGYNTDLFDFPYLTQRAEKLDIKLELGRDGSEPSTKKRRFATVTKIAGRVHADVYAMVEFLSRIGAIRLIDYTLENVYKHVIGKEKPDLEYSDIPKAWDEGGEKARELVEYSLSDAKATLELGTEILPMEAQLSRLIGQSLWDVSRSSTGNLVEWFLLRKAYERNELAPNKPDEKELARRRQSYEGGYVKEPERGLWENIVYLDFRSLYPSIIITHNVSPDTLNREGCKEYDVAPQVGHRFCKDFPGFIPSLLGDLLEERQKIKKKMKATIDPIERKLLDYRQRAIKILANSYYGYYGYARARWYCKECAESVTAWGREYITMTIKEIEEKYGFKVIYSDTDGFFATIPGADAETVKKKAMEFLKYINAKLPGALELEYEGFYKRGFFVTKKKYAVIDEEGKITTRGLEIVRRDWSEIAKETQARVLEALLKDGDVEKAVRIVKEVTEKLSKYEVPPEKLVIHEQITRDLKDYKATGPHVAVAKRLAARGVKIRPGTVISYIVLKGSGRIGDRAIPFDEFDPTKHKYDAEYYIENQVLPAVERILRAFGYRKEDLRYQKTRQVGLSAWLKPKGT
# PROTOCOL DESCRIPTION: SPR; 100 mM NaCl; SPR (Biacore T100, SA chip, steady state): 20 mM Tris-HCl pH 8.8, 10 mM (NH4)2SO4, 0.1% Triton X-100, 100 or 300 mM NaCl; temperature not stated
# CONDITION DETAILS: protein: recombinant; label: 3' biotin on template (immobilized); primer pairs with template 3' end; 5' overhang 23 nt of template
pKd: −log10 of the molar value.
PARAMETER MEASURED: pKd

BINDER: primer/template (mixed) DNA 1: GAGGTGGCGTCGGGTGGACGGGTGGATTGAAATTTAGGCTGGCAC DNA 2: GTGCCAGCCTAAATTTCAATCC
VALUE: 8.19
